experimental-conditions: in n-propyl acetate, 288.15 K
quantity-kind: solubility (mole fraction)

Recall and state the measured solubility (mole fraction) for "CS(=O)(=O)OCCCCOS(C)(=O)=O" .
0.000468

----------
experimental-conditions: in 2-ethoxyethanol, 293.15 K
quantity-kind: solubility (mole fraction)
Numbers only.

Recall and state the measured solubility (mole fraction) for "CS(=O)(=O)OCCCCOS(C)(=O)=O" .
0.000587

----------
experimental-conditions: in 2-ethoxyethanol, 308.15 K
quantity-kind: solubility (mole fraction)

Recall and state the measured solubility (mole fraction) for "CS(=O)(=O)OCCCCOS(C)(=O)=O" .
0.00179

----------
experimental-conditions: in 2-propoxyethanol, 303.15 K
quantity-kind: solubility (mole fraction)

Recall and state the measured solubility (mole fraction) for "CS(=O)(=O)OCCCCOS(C)(=O)=O" .
0.000693

----------
experimental-conditions: in 2-propoxyethanol, 288.15 K
quantity-kind: solubility (mole fraction)
Give bare numbers.

Recall and state the measured solubility (mole fraction) for "CS(=O)(=O)OCCCCOS(C)(=O)=O" .
0.00031

----------
experimental-conditions: in n-butanol, 278.15 K
quantity-kind: solubility (mole fraction)
Give bare numbers.

Recall and state the measured solubility (mole fraction) for "CS(=O)(=O)OCCCCOS(C)(=O)=O" .
6.8e-06

----------
experimental-conditions: in n-butanol, 308.15 K
quantity-kind: solubility (mole fraction)
Numbers only.

Recall and state the measured solubility (mole fraction) for "CS(=O)(=O)OCCCCOS(C)(=O)=O" .
9.25e-05

----------
experimental-conditions: in n-butanol, 288.15 K
quantity-kind: solubility (mole fraction)
Numbers only.

Recall and state the measured solubility (mole fraction) for "CS(=O)(=O)OCCCCOS(C)(=O)=O" .
1.72e-05

----------
experimental-conditions: in n-propyl acetate, 293.15 K
quantity-kind: solubility (mole fraction)
Numbers only.

Recall and state the measured solubility (mole fraction) for "CS(=O)(=O)OCCCCOS(C)(=O)=O" .
0.000649

----------
experimental-conditions: in 2-butoxyethanol, 278.15 K
quantity-kind: solubility (mole fraction)
Give bare numbers.

Recall and state the measured solubility (mole fraction) for "CS(=O)(=O)OCCCCOS(C)(=O)=O" .
0.000161

----------
experimental-conditions: in ethyl acetate, 293.15 K
quantity-kind: solubility (mole fraction)
Answers are plain numbers.

Recall and state the measured solubility (mole fraction) for "CS(=O)(=O)OCCCCOS(C)(=O)=O" .
0.00112

----------
experimental-conditions: in DMSO, 298.15 K
quantity-kind: solubility (mole fraction)
Answers are plain numbers.

Recall and state the measured solubility (mole fraction) for "CS(=O)(=O)OCCCCOS(C)(=O)=O" .
0.0367

----------
experimental-conditions: in 2-butoxyethanol, 313.15 K
quantity-kind: solubility (mole fraction)
Numbers only.

Recall and state the measured solubility (mole fraction) for "CS(=O)(=O)OCCCCOS(C)(=O)=O" .
0.000811

----------
experimental-conditions: in 2-methoxyethanol, 303.15 K
quantity-kind: solubility (mole fraction)

Recall and state the measured solubility (mole fraction) for "CS(=O)(=O)OCCCCOS(C)(=O)=O" .
0.00311

----------
experimental-conditions: in 2-methoxyethanol, 323.15 K
quantity-kind: solubility (mole fraction)
Answers are plain numbers.

Recall and state the measured solubility (mole fraction) for "CS(=O)(=O)OCCCCOS(C)(=O)=O" .
0.0118

The measured values listed here are drawn from BigSolDB 2.1.
